Test system: CAOV3
Assay: Primary qHTS to identify gynecologic anti-cancer compounds using libraries of approved drugs and bioactive compounds (AID 1345084); further: on the % scale 0 is the no-effect control and ±100 the full control effect; nearly all actives have a fitted effect of over 55% in size
Conditions: Gynecologic cancer cell panel viability, ATPlite luminescence, 48 h; series mostly up to 57.5 µM
Results filed as inconclusive are left out. Activity calls are given as the source filed them. The call rests on the fitted dose curve; in most records, active means well fitted cell-killing curve with a large enough effect; inconclusive means small, poorly fitted or top-dose-only effect, or effect the other way; inactive means flat fitted curve, though single readings scatter.
ASSAY METRIC: activity change, negative = cytotoxicity

COc1cc(C(=O)OC[C@@]2(O)CO[C@@H](O[C@H]3[C@H](Oc4ccc(O)cc4)O[C@H](CO)[C@@H](O)[C@@H]3O)[C@@H]2O)cc(OC)c1O :: inactive
Cc1c(Cc2ccc3ccccc3n2)c2cc(F)ccc2n1CC(=O)O :: inactive
O=C(OC[C@H]1O[C@H](O[C@]2(CO)O[C@H](CO)[C@@H](O)[C@@H]2O)[C@H](O)[C@@H](O)[C@@H]1O)c1ccc(O)cc1 :: inactive
NC(=O)C(O[C@@H]1O[C@H](CO[C@@H]2O[C@H](CO)[C@@H](O)[C@H](O)[C@H]2O)[C@@H](O)[C@H](O)[C@H]1O)c1ccccc1 (stereo not given in full) :: inactive

activity change, negative = cytotoxicity reported for this molecule CC1(C)CC[C@]2(C(=O)O[C@@H]3O[C@H](CO[C@@H]4O[C@H](CO)[C@@H](O)[C@H](O)[C@H]4O)[C@@H](O)[C@H](O[C@@H]4O[C@H](CO)[C@@H](O)[C@H](O)[C@H]4O)[C@H]3O)CC[C@]3(C)C(=CCC4[C@@]5(C)CC[C@H](O[C@@H]6OC[C@@H](O)[C@H](O)[C@H]6O)[C@@](C)(C(=O)O)C5CC[C@]43C)[C@@H]2C1 (stereo not given in full) : 15.5% [at 11.6 µM] (inactive)

---

Tested on: Zika virus NS2B-NS3 protease (linked construct)
Experiment: Primary screen NINDS Rhodamine qHTS for Zika virus inhibitors (AID 1347160); further: nearly all actives have a fitted effect of over 55% in size
Conditions: purified NS2B-NS3 protease, Rhodamine110 substrate fluorescence; series mostly up to 33.1 µM
Inconclusive results are not listed. Calls of active or inactive are those of the source. Calls come from the whole dose curve; as a rule, active = well fitted inhibition curve with a large enough effect; inconclusive = small, poorly fitted or top-dose-only effect; inactive = no such curve, though single readings can be large or run the other way.
Choose the fitting class; nothing outside active, inactive is accepted.

CC1(C)CC=C(C#Cc2ccccc2)c2cc(/C=C/c3ccc(C(=O)O)cc3)ccc21 :: active

### Prompt # lookup: test call for Cc1cc(C(=O)N2Cc3cnn(C)c3Nc3ccccc32)ccc1CNC(=O)N1CCN(Cc2cc(O)cc(O)c2)CC1
### Response inactive

### Prompt # lookup: test call for CC1(C)CC[C@]2(C(=O)O)[C@H](O)C[C@]3(C)C(=CCC4[C@@]5(C)CC[C@H](O[C@@H]6OC[C@@H](O)[C@H](O)[C@H]6O)[C@@](C)(C(=O)O)C5CC[C@]43C)[C@@H]2C1 (stereo not given in full)
### Response inactive

### Prompt # lookup: test call for CC1=C2C(=O)C=C(CO)C2[C@H]2OC(=O)[C@H](C)[C@@H]2[C@@H](OC(=O)Cc2ccc(O)cc2)C1 (stereo not given in full)
### Response inactive

---

Test: Primary redox qHTS assay for identification of artifact compounds. (AID 1845223);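 further: 0% = DMSO and 100% = reference compound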
Conditions: Amplex Red/HRP redox cycling with DTT, fluorescence; series mostly up to 53.8 µM
Records with an inconclusive call do not appear. Activity calls are given as the source filed them. The call rests on the fitted dose curve; in most records, active means well fitted activation curve with a large enough effect; inconclusive means small, poorly fitted or top-dose-only effect; inactive means flat fitted curve, though single readings scatter.
ASSAY METRIC: redox activity (% of DA3003)

Worked cases, redox activity (% of DA3003) given:
COc1ccc2[nH]c(S(=O)Cc3ncc(C)c(OC)c3C)nc2c1 (stereo not drawn) :: inactive
C=C(C(=O)O)[C@@H]1CC[C@@]2(C)CCC[C@@](C)(O)[C@@H]2C1 :: inactive
C/C=C/C=C/C(=O)OC1CC/C=C/C(O)C(O)C(CCC)OC1=O (stereo not drawn) :: inactive
C[C@]12CC[C@@H]3c4ccc(O)cc4CC[C@H]3[C@@H]1C[C@@H](O[C@@H]1O[C@H](C(=O)O)[C@@H](O)[C@H](O)[C@H]1O)[C@@H]2O :: inactive
C=C1C2(C)CC3C4(C)OC(C5OC56C4=CC(=O)OC6(C)C)C3(C)C13C(=O)OC(C)C3(O)C2=O (stereo not drawn) :: inactive
CCC(C)/C=C(C)/C=C/C1=CC2=C(Cl)C(=O)C(C)(O)C(=O)C2(O)C(OC)O1 (stereo not drawn) :: inactive
C=C1CC[C@@H]2[C@@](C)(CO[C@@H]3O[C@H](CO)[C@@H](O)[C@H](O)[C@H]3O)[C@H](O)CC[C@@]2(C)[C@@H]1CC/C(C)=C/CO[C@@H]1O[C@H](CO)[C@@H](O)[C@H](O)[C@H]1O :: inactive

Let's switch to this molecule now.
redox activity (% of DA3003) reported for this molecule C=C1CC2C3(C)C(O)CC(=O)C(C)(C)C3C(O)C(OC(C)=O)C2(C)C2C(=O)OC(C)(C(=O)OC)C(=O)C12C (stereo not drawn) : inactive

---

System: HeLa
Test: Primary qHTS to identify gynecologic anti-cancer compounds using libraries of approved drugs and bioactive compounds (AID 1345084); further: on the % scale 0 is the no-effect control and ±100 the full control effect; nearly all actives have a fitted effect of over 55% in size
Details: Gynecologic cancer cell panel viability, ATPlite luminescence, 48 h; series mostly up to 57.5 µM
Description: National Center for Advancing Translational Sciences [NCATS] Assay Overview: Chemotherapeutic drug responses vary from cancer to cancer and from patient to patient. […] ATPlite is a luminescence based assay reliant on the conversion of a luciferase substrate to light in the presence of ATP. As a cytotoxic compound will suppress growth and decrease the number of cells, the concentration of ATP will decrease, and less light signal will be detected in the well. […]
Inconclusive results are not listed. Activity calls are given as the source filed them. Calls come from the whole dose curve; as a rule, active = well fitted cell-killing curve with a large enough effect; inconclusive = small, poorly fitted or top-dose-only effect, or effect the other way; inactive = flat fitted curve, though single readings scatter.
ASSAY METRIC: activity change, negative = cytotoxicity

Worked cases, activity change, negative = cytotoxicity given:
CC[C@H](C)[C@H](NC(=O)[C@H](Cc1ccc(O)cc1)NC(=O)[C@@H](N)C(C)C)C(=O)N[C@@H](Cc1cnc[nH]1)C(=O)N1CCC[C@H]1C(=O)N[C@@H](Cc1ccccc1)C(=O)O :: 25.4% [at 6.55 µM] (inactive)
CC(C)C1(O)C=C2C(=O)CC3C(C)(C(=O)O)CCCC3(C)C2CC1 (configuration not stated) :: inactive
COc1cc2c(c(OC)c1O)C(c1ccc(O)cc1)C1C(=O)OC3C(COC(=O)C1=C2)OC(CO)(OC1OC(COC(=O)/C=C/c2ccc(OC4OC(C)C(O)C(O)C4O)cc2)C(O)C(O)C1O)C3O (configuration not stated) :: -0.142% [at 11.6 µM] (inactive)
CC(=O)O[C@H]1C[C@@H](O)C(C)(C)C2C[C@@H](OC(C)=O)[C@@]3(C)C4=CCC(C(CO)CC(O)C5OC5(C)C)[C@]4(C)CCC3[C@]21C (some centres not stated) :: inactive
CN(C)C(=O)C(O)C(Cc1ccccc1)NC(=O)c1cc2cc(Cl)ccc2[nH]1 (configuration not stated) :: inactive
COc1cc(O)cc(C)c1C(=O)OC1C(CO)OC(n2ccc(=O)[nH]c2=O)C1OC(C)=O (configuration not stated) :: inactive

activity change, negative = cytotoxicity reported for this molecule Cc1cn2cc(CC(=O)N3CCC4(CC3)CN(Cc3ccc(-n5nccn5)cc3Cl)C4)nc2s1 : inactive

---

Test system: CRL-7250
Assay: Cytotoxic Profiling of Annotated Libraries Using Quantitative High-Throughput Screening (AID 1296008); further: on the % scale 0 is the no-effect control and ±100 the full control effect; nearly all actives have a fitted effect of over 60% in size
Settings: Five cell lines viability, CellTiter-Glo ATP luminescence, 48-72 h; stronger effect = lower value
Inconclusive results are not listed.
Assign max response to each entry below.
Numbers only, in %.

C=C1C[C@]23C[C@@]1(O)CC[C@H]2[C@@]12C=C[C@H](O)[C@@](C)(C(=O)O1)[C@H]2[C@@H]3C(=O)O :: 0.765
C=C(CCO[C@@H]1O[C@H](CO)[C@@H](O)[C@H](O)[C@H]1O)C(=O)O :: -12.8
CC(=O)N[C@H]1[C@H](O[C@H]2CC[C@]3(C)C4CC=C5[C@@H]6CC(C)(C)CC[C@]6(C(=O)O)[C@H](O)C[C@@]5(C)[C@]4(C)CC[C@H]3C2(C)C)O[C@H](CO)[C@@H](O)[C@@H]1O (stereo partly specified) :: -7.8
C[C@@H]1O[C@@H](O[C@@H]2[C@@H](O)[C@H](O[C@H]3[C@H](O[C@H]4CC[C@@]5(C)C(CC[C@]6(C)C5CC=C5[C@@H]7CC(C)(C)CC[C@]7(C(=O)O[C@@H]7O[C@H](CO)[C@@H](O)[C@H](O)[C@H]7O)CC[C@]56C)C4(C)C)O[C@H](C(=O)O)[C@@H](O)[C@@H]3O)OC[C@H]2O)[C@H](O)[C@H](O)[C@H]1O (stereo partly specified) :: 2.65
CC(O)/C=C/C1(O)C(C)C(O)C(O[C@@H]2O[C@H](CO)[C@@H](O)[C@H](O)[C@H]2O)CC1(C)C (stereo partly specified) :: -7.69

max response reported for this compound CC1(C)[C@@H]2CC=C(CO[C@@H]3O[C@H](CO[C@@H]4OC[C@H](O)[C@H](O)[C@H]4O)[C@@H](O)[C@H](O)[C@H]3O)[C@H]1C2 : 0.583
